- SYSTEM: T1, LIN7A, O14910
- T1 sequence (O14910 103-200, limits assumed, looked up): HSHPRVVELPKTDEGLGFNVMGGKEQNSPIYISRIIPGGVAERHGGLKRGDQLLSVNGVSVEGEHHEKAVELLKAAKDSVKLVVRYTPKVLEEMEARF
- TEST NAME: holdup assay
- Set-up: key: below the threshold = too weak to quantify, mostly under pKd 3.1 to 4
- CONDITIONS: plain residues with an end cap or a label only (N-terminal biotin on a linker: ado-ado)
TEST READOUT: pKd

# BINDER, RESULT
records = [
    ("AKADAQESRL [PLCB2, Q00722]", 3.65),
    ("PKSNSSKEYV [CLDN7, O95471]", "below the threshold"),
    ("KIEDVEITLV [FCHSD2, O94868]", "below the threshold"),
    ("RDYTQSSSSL [GRM5, P41594]", "below the threshold"),
    ("AHGSTRDQSI [KCNB1, Q14721]", "below the threshold"),
    ("NSTHNLKDYV [CLDN20, P56880]", "below the threshold"),
    ("SAGADSETHC [SLCO1B1, Q9Y6L6]", "below the threshold"),
]

The reported pKd of the binder ATKDKKITTV [EXOC4, Q96A65] was 3.52
